Tested on: Caco-2 cells
test_method_notes: Membrane permeability test using Caco-2 cells with preincubation
Type: in vitro ADME
particulars: Caco-2 cells, preincubation 20 to 24 hours; apical FaSSIF/HBSS 1% DMSO pH 6.0, basal HBSS 4% BSA pH 7.4; basal sample at 180 minutes
Starred links: 1 amine or outer side, 2 acyl side, 3 side chain; linkers in the order of their positions; H or OH if unused. Non-standard residues stand in square brackets, D forms with d. Residues, ends and D or L forms follow the SMILES beside them. NMedβ3hAla = C[C@H](CC(=O)[*:2])N(C)[*:1]; NMeF = CN[C@@H](Cc1ccccc1)C(=O)O; NMeI = CC[C@H](C)[C@H](NC)C(=O)O; NMeL = CN[C@@H](CC(C)C)C(=O)O; NMeA = CN[C@@H](C)C(=O)O; Sar = CNCC(=O)O
endpoint_name: Caco2 Papp (10^-6 cm/sec)

compound	recorded_result
CC[C@H](C)[C@@H]1NC(=O)[C@H](CC(C)C)N(C)C(=O)[C@H](C)N(C)C(=O)[C@H](C)NC(=O)C[C@@H](C)N(C)C(=O)[C@H](CC(C)C)N(C)C(=O)[C@H](C)N(C)C(=O)CN(C)C(=O)[C@H]([C@@H](C)O)NC(=O)[C@H](Cc2ccccc2)N(C)C(=O)[C@H](CC(C)C)N(C)C(=O)[C@H](C(C)C)NC(=O)[C@H]([C@@H](C)CC)N(C)C1=O [pd148] (cyclo(A[NMeA][NMeL]I[NMeI]V[NMeL][NMeF]T[Sar][NMeA][NMeL][NMedβ3hAla]))	0.12 10^-6 cm/sec

----------
Catalogue of microsomal CLint at 1 µM values
test_method_notes: Metabolic stability test: liver microsomal stability assay
Assay type: in vitro ADME, mouse
particulars: male, pH 7.4; mouse liver microsomes 0.5 mg protein/mL, compound 1 µM, presence of NADPH; read-out: Mouse Hepatic Microsome CLh,int NADPH(+)
Starred links: 1 amine or outer side, 2 acyl side, 3 side chain; linkers in the order of their positions; H or OH if unused. Non-standard residues stand in square brackets, D forms with d. Residues, ends and D or L forms follow the SMILES beside them. *: point of attachment. NMeF = CN[C@@H](Cc1ccccc1)C(=O)O; NMeGABA = CN(CCCC(=O)[*:2])[*:1]; NMeT = CN[C@H](C(=O)O)[C@@H](C)O; hPhe = N[C@@H](CCc1ccccc1)C(=O)O; NMeβAla = CN(CCC(=O)[*:2])[*:1]; NMeL = CN[C@@H](CC(C)C)C(=O)O; NMeV = CN[C@H](C(=O)O)C(C)C; d(β3hA) = C[C@@H](N)CC(=O)O; NMeA = CN[C@@H](C)C(=O)O; dNMeA = CN[C@H](C)C(=O)O; Abu = CC[C@H](N)C(=O)O; tBu = CC(C)(C)*
endpoint_name: microsomal CLint at 1 µM (µL/min/mg)

compound	endpoint_name	recorded_result
CC[C@@H]1NC(=O)[C@H](Cc2ccccc2)N(C)C(=O)[C@H](COC(C)(C)C)NC(=O)[C@H](CC(C)C)N(C)C(=O)[C@H](C)N(C)C(=O)[C@@H]2CCCN2C(=O)[C@H]([C@@H](C)O)NC(=O)[C@H](CC(C)C)N(C)C(=O)[C@H]([C@@H](C)CC)NC(=O)[C@H](Cc2ccccc2)N(C)C(=O)[C@H](C(C)C)NC(=O)[C@@H](C)N(C)C(=O)C[C@@H](C)NC(=O)[C@H](C(C)C)N(C)C1=O [pd012] (cyclo([Abu][NMeV][d(β3hA)][dNMeA]V[NMeF]I[NMeL]TP[NMeA][NMeL]S(tBu)[NMeF]))	microsomal CLint at 1 µM	41.3
CC[C@@H]1NC(=O)[C@H](C)N(C)C(=O)[C@H](C(C)C)N(C)C(=O)[C@H]([C@@H](C)CC)NC(=O)[C@H](C)N(C)C(=O)CCCN(C)C(=O)C[C@@H](C)NC(=O)[C@H](C(C)C)N(C)C(=O)[C@H](CCc2ccccc2)NC(=O)CCN(C)C(=O)[C@H]([C@@H](C)O)N(C)C(=O)[C@H](CC(C)C)N(C)C(=O)[C@H]([C@@H](C)CC)NC(=O)[C@H](Cc2ccccc2)N(C)C1=O [pd055] (cyclo([Abu][NMeF]I[NMeL][NMeT][NMeβAla][hPhe][NMeV][d(β3hA)][NMeGABA][NMeA]I[NMeV][NMeA]))	microsomal CLint at 1 µM	27.1

Measured values drawn from patent EP4768499A1 for this set.
